B1: KLHL14 (parent)
chain: YVIGGRNETGYLSSVECYNLETNE

- Variants of: B1
- Protocol: protein stability index of a GFP-peptide fusion (GPS, HEK-293T) (PSI 1-6); higher = more stable;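 further: lentivirally expressed fusions sorted by FACS into six bins by GFP to DsRed ratio, PSI derived from sequencing read proportions per bin multiplied by bin number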
- Applied Conditions: c terminus: a fixed tail appended
Record form. Attribute: protein stability index. Fill in for each entry.
One number for each entry.

YVIGGRNETGYLSSVECYNFETNE [L20F] : 1.98
YVIGGRNETGYLSSVECYNLETNV [E24V] : 1.96
YVIGGRNETGYLSSVTCYNLETNE [E16T] : 1.96

Consider the additional variant presented here.
Query: Returns the measured protein stability index for the input variant. Input: YVIGGRNETGYLSSVECYNLITNE [E21I]
Reply: 2.05
